Tested on: M14 melanoma
Assay: NCI tumour cell line growth inhibition, 48 h
Metric name: GI50

# input Supply measured GI50 of CC1(C)CCC2(C(=O)O)CC[C@]3(C)C(=CCC4C5(C)CC[C@H](OC6OC(C(=O)O)C(O)C(OC7OC(CO)C(O)C(O)C7O)C6OC6OC(CO)C(O)C(O)C6O)C(C)(C)C5CCC43C)C2C1 (some centres not stated) in your reply.
# output 79.9 µM

# input Supply measured GI50 of `NCCCn1c2c(c3cc4c(cc3c1=O)OCO4)C(=O)c1ccccc1-2` in your reply.
# output 0.43 µM

# input Supply measured GI50 of `C=C1SC(=Nc2ccccc2Cl)N(C(=O)c2sc3ccccc3c2Cl)C1(C)C` in your reply.
# output 21 µM

# input Supply measured GI50 of `O=c1ccccc(-c2ccc(-c3ccco3)cc2)c1O` in your reply.
# output 0.665 µM

# input Supply measured GI50 of CCn1cc(C(=O)N/N=C/c2cccc(F)c2)c(=O)c2cc(F)c(N3CCNC(C)C3)c(F)c21 (configuration not stated) in your reply.
# output 1.82 µM

# input Supply measured GI50 of `O=C1C(Cl)=C(Nc2cccc(O)c2)C(=O)N1c1cccc(Cl)c1` in your reply.
# output 28.8 µM

# input Supply measured GI50 of `O=C1/C(=C/c2ccccc2Br)COc2ccc(O)c(O)c21` in your reply.
# output 1.53 µM
